procedure text: total protein half-life in vivo (active degradation + dilution); higher = more stable protein
experimental setup: wild type E. coli NCM3722; growth: N-lim chemostat; doubling time 12 h
Label 0 if total protein half-life in vivo falls below 7 h; label 1 in every other case.

Please review the entries below; each comes with its answer.
{"seq text": "MLKRVFLSLLVLIGLLLLTVLGLDRWMSWKTAPYIYDELQDLPYRQVGVVLGTAKYYRTGVINQYYRYRIQGAINAYNSGKVNYLLLSGDNALQSYNEPMTMRKDLIAAGVDPSDIVLDYAGFRTLDSIVRTRKVFDTNDFIIITQRFHCERALFIALHMGIQAQCYAVPSPKDMLSVRIREFAARFGALADLYIFKREPRFLGPLVPIPAMHQVPEDAQGYPAVTPEQLLELQKKQGK [P0AFY2]", "assigned category": 1}
{"seq text": "MLSRHINYFLAVAEHGSFTRAASALHVSQPALSQQIRQLEESLGVPLFDRSGRTIRLTDAGEVWRQYASRALQELGAGKRAIHDVADLTRGSLRIAVTPTFTSYFIGPLMADFYARYPSITLQLQEMSQEKIEDMLCRDELDVGIAFAPVHSPELEAIPLLTESLALVVAQHHPLAVHEQVALSRLHDEKLVLLSAEFATREQIDHYCEKAGLHPQVVIEANSISAVLELIRRTSLSTLLPAAIATQHDGLKAISLAPPLLERTAVLLRRKNSWQTAAAKAFLHMALDKCAVVGGNESR", "assigned category": 1}
{"seq text": "MKYDLIIIGSGSVGAAAGYYATRAGLNVLMTDAHMPPHQHGSHHGDTRLIRHAYGEGEKYVPLVLRAQTLWDELSRHNEEDPIFVRSGVINLGPADSTFLANVAHSAEQWQLNVEKLDAQGIMARWPEIRVPDNYIGLFETDSGFLRSELAIKTWIQLAKEAGCAQLFNCPVTAIRHDDDGVTIETADGEYQAKKAIVCAGTWVKDLLPELPVQPVRKVFAWYQADGRYSVKNKFPAFTGELPNGDQYYGFPAENDALKIGKHNGGQVIHSADERVPFAEVASDGSEAFPFLRNVLPGIGCCLYGAACTYDNSPDEDFIIDTLPGHDNTLLITGLSGHGFKFASVLGEIAADFAQDKKSDFDLTPFRLSRFQ", "assigned category": 0}

Please turn your attention to the following entry.
Query: total protein half-life in vivo >= 7 h for MKLVGSYTSPFVRKLSILLLEKGITFEFINELPYNADNGVAQFNPLGKVPVLVTEEGECWFDSPIIAEYIELMNVAPAMLPRDPLESLRVRKIEALADGIMDAGLVSVREQARPAAQQSEDELLRQREKINRSLDVLEGYLVDGTLKTDTVNLATIAIACAVGYLNFRRVAPGWCVDRPHLVKLVENLFSRESFARTEPPKA [P0ACA1] ?
Reply: 0

The values you see were collected from the supplement of paper PMC11246515.
